Reference source: PubChem BioAssay (NCI)

System: NCI-H460 lung
Assay: NCI-60 one-dose screen, 48 h
Assay Conditions: 10 µM unless noted
Compounds without any hit were thinned out: in the full panel of roughly 83,000, 20% have a hit. Calls of active or inactive are those of the source. Rule for the calls: active = growth percent below 10; inactive = the rest.
Result category, one only: T = active, F = inactive

Just curious, what result did COc1ccc2c(c1)sc1nc(-c3ccc(N(C)C)cc3)cn12 get here? F

Likewise for Nc1c(C(=O)Nc2cccc(Cl)c2)sc2nc3c(cc12)C(O)CCC3 (configuration not stated) ? F

Moving on to the next compound: Cc1c2oc3c(C)ccc(C(=O)OC(C)C4NC(=O)C(C(C)C)N(C)C(=O)CN(C)C(=O)C5CCCN5C(=O)C(C(C)C)NC4=O)c3nc-2c(C(=O)OC(C)C2NC(=O)C(C(C)C)N(C)C(=O)CN(C)C(=O)C3CCCN3C(=O)C(C(C)C)NC2=O)c(N)c1=O (configuration not stated) T

Would you kindly repeat that for NC(=NCCCCCCN=C(N)/N=C(\N)Nc1ccc(Cl)cc1)/N=C(\N)Nc1ccc(Cl)cc1 ? T

Likewise for Cc1cc(C)nc(NS(=O)(=O)c2ccc(Nc3nc4nc(SCc5ccccc5)nc(-c5ccc(O)cc5)c4c(=O)[nH]3)cc2)n1 ? F

Same thing, different compound: COc1cc(/C=N/OC(=O)Nc2ccccc2)cc(OC)c1OC F

How about this compound: O=C(CC(C(=O)c1ccccc1)N1CCN(Cc2ccccc2)CC1)c1ccccc1 (configuration not stated) F

Try COC(=O)[C@H](CCCCNC(=O)OCc1ccccc1)NC(=O)[C@@H](NC(=O)Nc1cc(C(F)(F)F)cc(C(F)(F)F)c1)C(C)C next. T

Consider next the compound Cc1cc(C(=O)Nc2ccc3cc(CN4CCOCC4)ccc3n2)c(C)n1-c1ccccc1 in the same way. F

Try this compound too: COc1ccc(C(=O)COc2ccc(/C=C3\Oc4ccc5ccccc5c4C3=O)cc2)cc1 F

Also NS(=O)(=O)c1cc(C2(O)NC(=O)c3ccccc32)ccc1Cl (configuration not stated) ? F

Field entry: c1ccc2nc(Cn3c[n+](Cc4ccc5ccccc5n4)c4ccccc43)ccc2c1 F

Here is the next compound: O=C(N/N=C/c1cccc(O)c1)c1ccc(C(F)(F)F)nc1Nc1cccc(C(F)(F)F)c1 F

Also need COc1cc(-c2nnc(-c3nc(-c4cc(OC)c(OC)c(OC)c4)n4ccccc34)o2)ccc1N , thanks. F

Then this compound: NS(=O)(=O)c1ccc(-n2ncc3c(N/N=C/c4ccccc4)ncnc32)cc1 F

Next record, please: COc1cccc(CCN2C(=O)CCC3=C2CCC3=O)c1 F

Moving on to the next compound: CCCCN=C(N)c1ccc(OCCSCCOc2ccc(C(N)=NCCCC)cc2)cc1 F

Lookup O=c1[nH]c(N2CCC(Cc3ccccc3)CC2)nc2sc3c(c12)CCCC3 F

Entry to check: NC(=O)NC1(C(=O)O)CCCC1 F

Cool, now COc1cc(C2CC(c3ccc(C)cc3)=NN2C=O)ccc1OCCN(C)C (configuration not stated) F

How about O=C(CC1Sc2ccccc2NC1=O)NNc1cccc(Cl)c1Cl (configuration not stated) ? F

How about CC(C)N(Cc1ccccc1)c1c(S)ssc1=S ? T

What do you have for CCCCCCCC[Si](OCC)(OCC)OCC ? F

Then Cc1cc(Br)c(C)cc1Br ? F

Also need CCCCCCCCN(CCO)CCCCCCCC , thanks. F

Entry to check: COc1ccc(NC(=O)c2ccc(-c3ccccc3)cc2)c(C(N)=O)c1 F

What would you report for CC1CN(CC(O)c2ccc(Br)cc2)CCO1 (configuration not stated) ? F

Follow-up entry: Cn1ccnc1C(=O)/C=C/c1ccc(C(=O)Nc2nc3ccccc3[nH]2)cc1 F

Try this compound next: Cc1nn(-c2nc3ccccc3s2)c(C)c1Oc1ccccc1O F

# iterate: N#CC(C#N)C(C#N)C#N F

Repeat for the following compound: CCc1ccc(-c2nc(SCC(=O)NC3CCCCC3)n[nH]2)cc1 F

Input Cc1cc(-c2ccccc2)cc(C)n1 F

Next compound: Cc1ccc(-c2c3c(N)c4c(nc3nc3c2c(C)nn3-c2ccccc2)CCC4)cc1 T

Would you mind doing O=C(Nc1ccccc1)P(=O)(O)c1ccccc1 as well? F

Same for O=CN1N=C(c2ccc(Nc3ccnc4cc(Cl)ccc34)cc2)CC1c1ccc(Cl)cc1 (configuration not stated) T

// next record CCCCc1ccc(C(N)=O)nc1 F

How about COc1cc(/C=C/c2cc(/C=C/c3ccc(O)c(OC)c3)n(C(=O)c3ccc(Cl)cc3)n2)ccc1O ? T

Another compound to look at: Cc1ccc2nc3c(n2c1)C(=O)C(=O)c1ccccc1-3 T

And for c1ccc(-c2n(Cc3ccc4ccccc4c3)cc[n+]2Cc2ccc3ccccc3c2)cc1 ? T

Same for Cc1[nH]c(=O)[nH]c(=O)c1CCSSCCc1c(C)[nH]c(=O)[nH]c1=O F

// same read-out, input: CCOC(=O)c1sc(NC(=O)COc2cccc(/C=C3\CCc4cc(OC)ccc4C3=O)c2)nc1C F

Param item: O=C(NCCCl)NCCN1c2nc3ccccc3cc2Sc2cc3ccccc3nc21 F
